Tested on: CEM cells HIV-1 protection, formazan growth assay
assay: NCI AIDS Antiviral Assay
applied.conditions: measured here: growth of uninfected CEM cells
measured.attribute: IC50

Input: GET /values?readout=IC50&item= "C[Si](C)(C)/C=C\CCNC=O"
Output: > 1450 µM

Input: GET /values?readout=IC50&item= "CN=C(n1ccnc1)n1ccnc1"
Output: > 200 µM

Input: GET /values?readout=IC50&item= "CCCC[Si](CCCC)(CCCC)O[C@@H](/C=C/C(=O)OCC)[C@H](Cc1ccccc1)O[Si](CCCC)(CCCC)CCCC"
Output: > 200 µM

Input: GET /values?readout=IC50&item= "O=[N+]([O-])C(/C=C(\Cl)n1nnc2ccccc21)=C(/Cl)n1nnc2ccccc21"
Output: > 200 µM

Input: GET /values?readout=IC50&item= Cc1cn(CC2COC(CO)O2)c(=O)[nH]c1=O (stereo unspecified)
Output: > 1020 µM

Input: GET /values?readout=IC50&item= "Cc1ccc(NCCCN2CCN(CCCNc3ccc(C)c4sc5ccccc5c(=O)c34)CC2)c2c(=O)c3ccccc3sc12"
Output: > 100 µM

Input: GET /values?readout=IC50&item= CN1C(=O)C(/C=N/NC(=O)c2cccnc2)C(N)N(C)C1=O (stereo unspecified)
Output: > 200 µM

Input: GET /values?readout=IC50&item= "O=C1NC(=O)C(=Cc2ccccc2F)C(=O)N1"
Output: > 1070 µM

====

Test system: CEM cells HIV-1 protection, formazan growth assay
assay: NCI AIDS Antiviral Assay
measured.attribute: EC50

Worked examples, 5 compounds total:
Input: GET /values?readout=EC50&item= "CC(C)(NC(=O)c1ccccc1SC(=O)CCCC[n+]1ccccc1)C(N)=O"
Output: 1 µM

Input: GET /values?readout=EC50&item= "C=C[C@@H](C)[C@@H](O)c1c(O)c2c(c3c(CCC)cc(=O)oc13)OC(C)(C)C=C2"
Output: > 200 µM

Input: GET /values?readout=EC50&item= CC1(C)OC(=S)N(c2ccccc2)C12C=Cc1ccccc1O2 (stereo not given)
Output: > 200 µM

Input: GET /values?readout=EC50&item= COc1ccc(NC(=O)Oc2ccc3c(C)cc(=O)oc3c2)c(OC)c1 (tested in a mixture with another compound)
Output: > 100 µM

Input: GET /values?readout=EC50&item= "N#C/C(=C\c1ccc(Cl)cc1)C(=O)c1ccccc1"
Output: > 83.2 µM

Further cases:
Input: GET /values?readout=EC50&item= CC(C)NCC(O)c1cc(OCc2ccccc2)c(OCc2ccccc2)cc1NC(=O)CCC(=O)O (stereo not given)
Output: > 200 µM

====

System: CEM cells HIV-1 protection, formazan growth assay
assay: NCI AIDS Antiviral Assay
applied.conditions: measured here: growth of uninfected CEM cells
pIC50: −log10 of the molar value.
measured.attribute: pIC50

Worked examples, 5 compounds total:
Input: GET /values?readout=pIC50&item= "COc1ccc2[nH]c3c(c2c1)CC(=O)N1CCC[C@H](C1)CC31OCCCO1"
Output: 3.95

Input: GET /values?readout=pIC50&item= "CC(=O)N(C(C)=O)c1c(C)cc(-c2ccccc2)oc1=O"
Output: < 3.70

Input: GET /values?readout=pIC50&item= CC12CCC(=O)N1c1ccccc1N2 (configuration not stated)
Output: < 3.30

Input: GET /values?readout=pIC50&item= "COc1cc([C@H]2CC(=O)C[C@@H](c3cc(OC)c(OC)c(OC)c3)C23C(=O)c2ccccc2C3=O)cc(OC)c1OC"
Output: < 3.70

Input: GET /values?readout=pIC50&item= COC(=O)C(/C(=N/N)C(=O)Nc1cccc(O)c1)c1nc2ccccc2[nH]c1=O (configuration not stated)
Output: < 4.46

Further cases:
Input: GET /values?readout=pIC50&item= O=NC1C(Cl)C2CC1C1C(Br)C(Br)CC21 (configuration not stated)
Output: < 3.70

Input: GET /values?readout=pIC50&item= "C/C=C/C=Nc1c(C#N)c2n(c1C(=O)Nc1ccccc1)CCC2"
Output: < 4.00

Input: GET /values?readout=pIC50&item= "N#Cc1c2ccccc2cn1-c1ccc(F)cc1"
Output: 4.10

// provenance: PubChem BioAssay AID179
